Target: nuclear factor-kappa B (NF-kB)-inducing kinase (NIK) (Homo sapiens, UniProt Q99558)
Construct: made in house; host or cells: baculovirus-infected insect cells
Sequence (Q99558 whole entry): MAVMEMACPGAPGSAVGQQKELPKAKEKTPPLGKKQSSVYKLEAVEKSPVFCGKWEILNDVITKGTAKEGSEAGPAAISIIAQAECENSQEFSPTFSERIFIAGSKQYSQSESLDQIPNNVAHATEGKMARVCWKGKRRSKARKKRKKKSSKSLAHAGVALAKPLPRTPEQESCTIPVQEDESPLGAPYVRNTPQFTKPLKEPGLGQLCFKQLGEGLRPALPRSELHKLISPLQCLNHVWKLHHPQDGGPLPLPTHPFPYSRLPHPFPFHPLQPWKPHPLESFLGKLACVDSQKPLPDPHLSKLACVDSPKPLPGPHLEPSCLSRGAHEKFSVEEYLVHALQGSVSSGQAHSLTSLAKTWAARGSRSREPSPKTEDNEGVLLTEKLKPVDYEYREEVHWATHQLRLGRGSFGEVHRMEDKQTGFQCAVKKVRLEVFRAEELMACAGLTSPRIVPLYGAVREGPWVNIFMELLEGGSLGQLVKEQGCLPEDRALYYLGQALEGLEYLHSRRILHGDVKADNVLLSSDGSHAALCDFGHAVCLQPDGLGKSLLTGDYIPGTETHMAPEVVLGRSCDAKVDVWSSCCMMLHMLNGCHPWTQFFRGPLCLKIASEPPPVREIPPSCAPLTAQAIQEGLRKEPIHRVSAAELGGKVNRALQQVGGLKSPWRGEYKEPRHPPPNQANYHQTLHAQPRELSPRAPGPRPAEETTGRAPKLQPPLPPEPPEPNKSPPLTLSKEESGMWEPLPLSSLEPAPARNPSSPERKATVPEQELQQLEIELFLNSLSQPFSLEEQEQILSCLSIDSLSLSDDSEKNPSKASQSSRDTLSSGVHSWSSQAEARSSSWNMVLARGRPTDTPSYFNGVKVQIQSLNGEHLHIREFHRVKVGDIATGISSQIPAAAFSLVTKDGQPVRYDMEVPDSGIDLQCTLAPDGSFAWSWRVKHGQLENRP
Assay: NIK Enzyme Inhibition Assay (Transcreener ADP assay)
Assay type: biochemical
Details: purified NIK 0.2-1 nM, 10 uM ATP, fluorescence polarization, Morrison's quadratic equation; read-out: inhibitory value (Ki) for NIK
measure-name: Ki (nM)

1 = CC(O)(C#Cc1ccc2ncn(-c3ccnc(N)n3)c2c1)C(F)(F)F (stereo not shown) [Example T1-27]
2 = Cc1nc([C@](C)(O)C#Cc2ccc3c(CN4CC(F)(F)C4)nn(-c4ccnc(N)n4)c3c2)no1 [Example T1.1-65]
3 = Cc1nc2ccc(C#CC(C)(O)c3nccs3)cc2n1-c1ncnc(N)n1 (stereo not shown) [Example T1-53]
Problem: Please list these in order of increasing Ki. Thank you! Could you list the labels in the order requested?
Solution: 3, 2, 1
(3: 0.4 nM, 2: 7 nM, 1: 570 nM)

1 = CC(O)(C#Cc1ccc2cnn(-c3nc(N)ncc3Cl)c2c1)c1nccs1 (stereo not shown) [Example T1-6]
2 = Cc1nc2ccc(C#CC3(CO)CCCC3)cc2n1-c1ncnc(N)n1 [Example T1.1-107]
Problem: # returns the entry with the larger Ki; inputs 1 and 2 Mark your selection by writing its label.
Solution: 2
(2: 913 nM, 1: 0.14 nM)

I = Cc1nc2ccc(C#CC(C)(O)c3nccs3)cc2n1-c1ccnc(N)n1 (stereo not shown) [Example T1-12]
II = Cc1nc([C@](C)(O)C#Cc2ccc3c(C(C)(C)F)nn(-c4ccnc(N)n4)c3c2)no1 [Example T1.1-35]
III = CCOc1nc2ccc(C#CC(C)(O)c3cc(C)on3)cc2n1-c1ccnc(N)n1 (stereo not shown) [Example T1-70]
IV = Cc1nonc1C(C)(O)C#Cc1ccc2c(C)nn(-c3ccnc(N)n3)c2c1 (stereo not shown) [Example T1-61]
Problem: Provide the items ranked by increasing Ki. Show the ranking through the labels, in the order asked for.
Solution: III, II, I, IV
(III: 0.5 nM, II: 2 nM, I: 9.3 nM, IV: 383 nM)

----------
Target: nuclear factor-kappa B (NF-kB)-inducing kinase (NIK) (Homo sapiens)
Construct: made in house; host or cells: baculovirus-infected insect cells
Assay: NIK Enzyme Inhibition Assay (Transcreener ADP assay)
Format: biochemical
Conditions: purified NIK 0.2-1 nM, 10 uM ATP, fluorescence polarization, Morrison's quadratic equation; read-out: inhibitory value (Ki) for NIK
measure-name: Ki (nM)

Sample records with Ki:
C[C@@](O)(C#Cc1ccc2nc(C3CC3)n(-c3ncnc(N)n3)c2c1)c1nccs1	0.23
Cc1cc(-n2nc(C)c3ccc(C#C[C@@](C)(O)c4noc(C)n4)cc32)nc(N)n1	78

1 = COCc1nc2ccc(C#C[C@@](C)(O)c3nccs3)cc2n1-c1ncnc(N)n1
2 = Cc1cc(C(C)(O)C#Cc2ccc3ncn(-c4ccnc(N)n4)c3c2)on1 (stereo not shown)
3 = Cc1cc(C(C)(O)C#Cc2ccc3c(C(O)C(C)C)nn(-c4ccnc(N)n4)c3c2)no1 (stereo not shown)
4 = Cc1cc(-n2nc(C)c3ccc(C#CC(C)(O)c4ncccn4)cc32)nc(N)n1 (stereo not shown)
5 = Cc1cc(C(C)(O)C#Cc2ccc3ncn(-c4ccnc(N)n4)c3c2)no1 (stereo not shown)
Problem: Descending sort on Ki required. Could you list the labels in the order requested?
Solution: 4, 2, 1, 5, 3
(4: 85 nM, 2: 8.5 nM, 1: 2.7 nM, 5: 0.42 nM, 3: 0.2 nM)

Values were extracted from patent US8901313B2.
